The origin of these recorded values is PubChem BioAssay AID330.

test system: P388 leukemia ip, CD2F1 mice, survival T/C; experiment: NCI In Vivo Anticancer Drug Screen. Data for tumor model P388 Leukemia (intraperitoneal) in CD2F1 (CDF1) mice; conditions: endpoint: median survival time; dose: 200.0 mg/kg/injection; schedule: Q04DX003 (ip); vehicle: saline
Inconclusive results and toxic doses are left out. The calls were made as follows: active = survival T/C of 150% or more; inactive = T/C below 125% in these data.
Your reply should match one of these outcome classes. active, inactive

# count of solved cases: 5
[
  {
    "compound": "C1=Nc2ccccc2OCCOc2ccccc2N=Cc2ccccc2NCCNc2ccccc21",
    "answer_label": "inactive"
  },
  {
    "compound": "CCOC(=O)C(N)CSC(c1ccccc1)(c1ccccc1)c1ccccc1 (stereo not drawn)",
    "answer_label": "active"
  },
  {
    "compound": "COc1ccc(C2CC(=O)N(c3nc(C)cc(C)n3)C(=O)C2)cc1",
    "answer_label": "inactive"
  },
  {
    "compound": "CC1(C)COC(=O)/C1=C1\\SC(=O)NC1=O",
    "answer_label": "inactive"
  },
  {
    "compound": "O=[N+]([O-])c1c(Nc2ccccc2)nc(-c2ccccc2)nc1Nc1ccccc1",
    "answer_label": "inactive"
  }
]

QUERY: For O=C(CN1CCOCC1)c1c(-c2ccccc2)[nH]c2ccccc12 , which call appears in the assay record?
RESULT: inactive

QUERY: Assay result, entry CN(C)C(C#C[Si](C)(C)C)C1(O)CCCCC1 (stereo not drawn) — outcome?
RESULT: inactive

QUERY: Tell me the recorded outcome of this test for CCCN(C)C12CN3CN(CN(C3)C1)C2 .
RESULT: inactive

---

system: P388 leukemia ip, CD2F1 mice, survival T/C; assay: NCI In Vivo Anticancer Drug Screen. Data for tumor model P388 Leukemia (intraperitoneal) in CD2F1 (CDF1) mice; conditions: endpoint: median survival time; dose: 60.0 mg/kg/injection; schedule: Q01DX005 (ip); vehicle: saline; higher = longer survival
Toxic doses and inconclusive results are not listed.
readout_name: T/C

Consider the following illustrative entries.
[
  {
    "molecule": "N#CC(C#N)=C(O)/C(=C/c1ccc([N+](=O)[O-])cc1)NC(=O)c1ccccc1",
    "meas_value": "95 % of control"
  },
  {
    "molecule": "CSCCCCN=[N+]=[N-]",
    "meas_value": "104 % of control"
  },
  {
    "molecule": "CCN1C(=O)C(C)C(=O)N(C)C1=O (stereo not given)",
    "meas_value": "110 % of control"
  },
  {
    "molecule": "BrCC1CN=C(c2ccccc2)O1 (stereo not given)",
    "meas_value": "104 % of control"
  }
]

Please examine the following record next.
QUERY: For P388 leukemia ip, CD2F1 mice, survival T/C, provide T/C of C1OC2C1OC1COC12 (stereo not given) please.
RESULT: 108 % of control

---

test system: P388 leukemia ip, CD2F1 mice, survival T/C; assay: NCI In Vivo Anticancer Drug Screen. Data for tumor model P388 Leukemia (intraperitoneal) in CD2F1 (CDF1) mice; conditions: endpoint: median survival time; dose: 25.0 mg/kg/injection; schedule: Q01DX009 (ip); vehicle: Klucel (hydroxypropylcellulose) (HPC); higher = longer survival
Inconclusive results and toxic doses are left out.
readout_name: T/C

[
  {
    "compound": "CCCCOS(=O)(=O)c1ccc([N+](C)(C)C)cc1",
    "T/C": "102 % of control"
  },
  {
    "compound": "S=C1SCN(c2ccc(Br)cc2)CN1c1ccc2[nH]c(=S)sc2c1",
    "T/C": "106 % of control"
  },
  {
    "compound": "C/C=C(\\C)C(=O)OC1C(O)C(C)(C)C2C3C(=O)C=C(C)C2C3(C)C1OC(=O)/C(C)=C/C (stereo unspecified)",
    "T/C": "100 % of control"
  },
  {
    "compound": "Cc1ccc(S(=O)(=O)N/N=C/c2ccccc2Cl)cc1",
    "T/C": "106 % of control"
  }
]

QUERY: Fill in: T/C of CC(C)=CCC/C(C)=C/CC1=CC(=O)C=CC1=O is ___
RESULT: 101 % of control

QUERY: What value of T/C has been reported for the following compound? COc1ccc(/C=C/C(=O)c2cc(O)cc(OC)c2)cc1
RESULT: 101 % of control

QUERY: Endpoint output: T/C of COc1ccccc1N1CCCSC1=Nc1ccccc1 . Value?
RESULT: 98 % of control

QUERY: Please report the recorded T/C for CCn1c(=O)c2[nH]c(Cl)nc2n(C)c1=O .
RESULT: 102 % of control

QUERY: Given the entry O=c1[nH]cnc2c1nc(Br)n2C1OC(CO)C(O)C1O (stereo unspecified) , report its measured T/C.
RESULT: 94 % of control

QUERY: Query: T/C; subject: C=Cc1c(C)c(O)cc2c1-c1ccc(O)c(C)c1CC2
RESULT: 104 % of control

QUERY: Give its T/C value. Item: CCN(CC)CCNc1ccc(N=Nc2cnc3ccccc3c2)c2ccccc12
RESULT: 115 % of control

---

test system: P388 leukemia ip, CD2F1 mice, survival T/C; test: NCI In Vivo Anticancer Drug Screen. Data for tumor model P388 Leukemia (intraperitoneal) in CD2F1 (CDF1) mice; settings: endpoint: median survival time; dose: 120.0 mg/kg/injection; schedule: Q01DX005 (ip); vehicle: Klucel (hydroxypropylcellulose) (HPC); higher = longer survival
Toxic doses and inconclusive results are not listed.
Catalogue of compounds with associated T/C

Examples from the recorded data:
[
  {
    "compound": "O=C1CSC(c2c(F)cccc2Cl)N1c1ncccn1 (stereo not given)",
    "T/C": "111 % of control"
  },
  {
    "compound": "COC(=O)C1=NC(=O)C(C#N)=C(C(=O)OC)C1(C(=O)c1ccc(OC)cc1)c1ccc(OC)cc1 (stereo not given)",
    "T/C": "91 % of control"
  },
  {
    "compound": "Clc1cc(=Nc2ccccc2)n2ccccc2n1",
    "T/C": "99 % of control"
  },
  {
    "compound": "Cc1ccc(NCN2C(=O)c3ccccc3C2=O)c(C)n1",
    "T/C": "89 % of control"
  },
  {
    "compound": "CC(=O)c1c(C)cc2cccc(O)c2c1O",
    "T/C": "108 % of control"
  }
]

Here is another compound to look at.
QUERY: Return reported T/C; argument: CC(=O)OC1(c2ccccc2)N=C(c2ccccc2)N=C1c1ccccc1 (stereo not given)
RESULT: 110 % of control

---

tested on: P388 leukemia ip, CD2F1 mice, survival T/C; assay: NCI In Vivo Anticancer Drug Screen. Data for tumor model P388 Leukemia (intraperitoneal) in CD2F1 (CDF1) mice; conditions: endpoint: median survival time; dose: 20.0 mg/kg/injection; schedule: Q01DX009 (ip); vehicle: saline with Tween-80; higher = longer survival
Inconclusive results and toxic doses are left out.
Examples of molecules with documented T/C follow.

[
  {
    "molecule": "CC(C)(c1ccccc1)[N+](C)(C)C",
    "meas_value": "109 % of control"
  },
  {
    "molecule": "CCOC(=O)C(Cc1c[nH]c2ccccc12)NCc1ccc(N(CCCl)CCCl)cc1 (centres undefined)",
    "meas_value": "110 % of control"
  },
  {
    "molecule": "CCOC(=O)N1C=CC(C2C=CN(C(=O)OCC)C=C2)C=C1",
    "meas_value": "96 % of control"
  }
]

Now let's try a different one.
QUERY: Entry CCn1c2ccccc2c2cc(N=Nc3cc[n+]([O-])c4c(O)cccc34)ccc21 , system P388 leukemia ip, CD2F1 mice, survival T/C: what T/C was measured?
RESULT: 106 % of control

---

System: P388 leukemia ip, CD2F1 mice, survival T/C
Assay: NCI In Vivo Anticancer Drug Screen. Data for tumor model P388 Leukemia (intraperitoneal) in CD2F1 (CDF1) mice
Settings: endpoint: median survival time; dose: 400.0 mg/kg/injection; schedule: Q01DX009 (ip); vehicle: saline; higher = longer survival
Method: The antitumor activity of compounds was measured in mice bearing transplantable tumors. Survival or tumor size were measured and the results are expressed as the measurement made in the treated group (T) divided by the measurement made in the vehicle treated control group (C). The tumor model used in this assay is P388 Leukemia (intraperitoneal) in CD2F1 (CDF1) mice
Toxic doses and inconclusive results are not listed.
readout_name: T/C

The examples below pair each entry with its known result.
[
  {
    "molecule": "Cc1ccno1",
    "assay_target": "P388 leukemia ip, CD2F1 mice, survival T/C",
    "meas_value": "100 % of control"
  },
  {
    "molecule": "CCCCCCCCCCSCC",
    "assay_target": "P388 leukemia ip, CD2F1 mice, survival T/C",
    "meas_value": "104 % of control"
  },
  {
    "molecule": "COc1cc2c(cc1OC)C1C(C)c3ccc(OC)c(OC)c3CN1CC2 (centres undefined)",
    "assay_target": "P388 leukemia ip, CD2F1 mice, survival T/C",
    "meas_value": "94 % of control"
  }
]

Proceeding to the next molecule to report its T/C.
QUERY: Recorded T/C of OCC12COCN1COC2 , please.
RESULT: 123 % of control
